Each recorded value in this set is attributed to PubChem BioAssay (Tox21).

assay: qHTS assay to identify small molecule agonists of the NFkB signaling pathway - cell viability counter screen (AID 1159515); conditions: NFkB-bla ME-180 viability, CellTiter-Glo luminescence, 5 h; series mostly up to 61 µM; also: nearly all actives have a fitted effect of over 55% in size
Inconclusive results are not listed. Calls of active or inactive are those of the source. Calls follow the shape of the full dose curve.
propertyLabel: outcome

// known answers, use as guide
COc1ccc(N)c([N+](=O)[O-])c1    inactive
COc1cc(NC(C)CCCN)c2ncccc2c1 (stereo not given)    inactive
CC1CCCC(=O)C1=O (stereo not given)    inactive
O=S(=O)(Cl)c1c(Cl)cccc1Cl    inactive
O=C(Oc1ccccc1)c1ccc2ccccc2c1O    inactive
O=C(c1ccccc1)C1CCC1    inactive
COC(OC)OC    inactive
O=C(NC(Cc1cc(=O)[nH]c2ccccc12)C(=O)O)c1ccc(Cl)cc1 (stereo not given)    inactive

Now for a further compound.
For record "CCOC(=O)Oc1ccc(CCNC(=O)[C@H](CCSC)NC(C)=O)cc1OC(=O)OCC" the listed outcome is inactive
